Entries and their growth values follow.
- Test system: BT-549 breast
- procedure_details: NCI-60 one-dose screen, 48 h (100 = growth as untreated, 0 = no growth, -100 = all killed)
- details: 10 µM unless noted
- Experimental: Growth inhibition of the BT-549 human tumor cell line is measured as a screen for anti-cancer activity. Cells are grown in 96 well plates and exposed to the test compound for 48 hours. Compounds are tested at a single concentration, which is 10^-5 M for most compounds. The reported endpoint is percent growth (GI% or GIPRCNT), where numbers from 0 - 100% represent growth inhibition, and numbers from -100% - 0 represent cell death. For example, a value of 40 represents 60% growth inhibition. […]
This is part of a sample that, as a whole, favours compounds with a hit. Of some 83,000 tested, about 20% had one in any assay.
Unit % implied. Number only.

Specify measured growth for COc1cc(C2CC(c3ccc(Cl)cc3)=NN2C(C)=O)ccc1Oc1ccnc2cc(Cl)ccc12 (centres undefined) . 92

Quickly give me recorded growth for "COc1ccc(/C=C/c2nc3ccccc3c(=O)n2-c2ccc(C#Cc3ccc(C(C)(C)C)cc3)cc2C)c(OC)c1" 99.4

Give growth for the following molecule: "CN(C)c1ccc(C2(Cl)c3ccccc3N(C)c3ccccc32)cc1" 71.9

Quickly give me recorded growth for "N/C(=C\C(=O)n1nc(-c2ccccc2)cc1N)c1ccccc1" 30.1

Dear colleague, please send me the reported growth for "COc1cnc2c(c1)C(=O)c1c-2n(CCCNC(C)C)c(=O)c2cc(Cl)ccc12" when you can. 30.9

* * *

- System: K-562 leukemia
- procedure_details: NCI-60 one-dose screen, 48 h (100 = growth as untreated, 0 = no growth, -100 = all killed)
- details: 10 µM unless noted
Compounds without any hit were thinned out: in the full panel of roughly 83,000, 20% have a hit.
So basically: is growth under 90%? Then yes. Not under? Then no.

Please check: growth for CC(C)(C)[Si](C)(C)OC1[C@@H](O[Si](C)(C)C(C)(C)C)[C@@H](CNC(=O)NC(=O)NC(=O)CCl)O[C@H]1n1cnc2c(NC(=O)Nc3ccccc3)ncnc21 (stereo not given in full) , strictly under 90% or not? yes

Identify whether the compound "COc1cc(-c2nn(C(=O)NCCN3CCN(C)CC3)cc2-c2ccncc2)ccc1Cl" records growth below 90%. yes

---
Given COc1ccc(C(=O)C(CN(C)C)c2ccc(OC)cc2)cc1 (stereo not given) , is recorded growth strictly lower than 90%? yes

Please determine if "O=S(=O)(Cc1ccc(Cl)cc1Cl)c1ccc(Cl)cc1" is below 90% in terms of growth. yes

Consider the compound "CC(C)c1nc2ccccc2n1CC(=O)N/N=C/c1cccc(O)c1" . Is its growth strictly less than 90%? yes

I wonder whether "NNc1ccc(S(N)(=O)=O)cc1" has growth below 90%. Can you tell? no

is_below(growth, 90%) for "CC(C)CCSc1nc(Nc2ccccc2)c(C#N)c(-c2ccc(F)cc2)n1" ? yes

Dear colleague, could you confirm whether growth of "O=[N+]([O-])c1ccc(N=Nc2c(NNc3ccc([N+](=O)[O-])cn3)cc(S(=O)(=O)O)c3ccccc23)nc1" falls below 90%? Thanks. no

Just wondering, is growth of "CN(C)c1nc(-c2cccs2)n2nc(-c3ccc(Cl)cc3)cc2n1" below 90%? yes

* * *

- Test system: NCI-H460 lung
- procedure_details: NCI-60 one-dose screen, 48 h (100 = growth as untreated, 0 = no growth, -100 = all killed)
- details: 10 µM unless noted
Compounds without any hit were thinned out: in the full panel of roughly 83,000, 20% have a hit.
The entries below are paired with their reported growth.
Form entry: value (%) — number only.

Give me measured growth, please, for this compound: C[C@@H]1CC2C3CCC4=CC(=O)C=C[C@]4(C)[C@@]3(Cl)[C@@H](O)C[C@]2(C)[C@@]1(OC(=O)c1ccco1)C(=O)CCl (stereo partly drawn) 62.1

Answer with reported growth of "COc1ccc2[nH]cc(C3(c4c[nH]c5ccc(OC)cc45)C(=O)Nc4ccc(Cl)cc43)c2c1" 6.57

Continuing:
Look up and state reported growth for "CCNC(=O)c1ccc2c(c1)nc(-c1ccc(Cl)cc1)n2-c1cc(C(C)(C)C)[nH]n1" 36.7

Give the value of growth reported for the following: "CCNCCCn1c2c(c3ccc(Cl)cc3c1=O)C(=O)c1cc(OC)cnc1-2" -69.9

Identify measured growth associated with "COC(=O)CSc1ccc(Cl)cc1" 109

State, in one line, measured growth of "CS(=O)(=O)c1ccc(C(=O)Nc2ccc(Cl)c(-c3ccccn3)c2)c(Cl)c1" -46

Give a short answer stating reported growth for "Cc1ccc(Nc2cccc3ccccc23)cc1" . 103

Dear colleague, please send me the reported growth for "O=C(Cc1ccc([N+](=O)[O-])cc1)Oc1ccccc1" when you can. 114

Identify measured growth corresponding to CCN(CC)CCCC(C)Nc1c(-c2ccccc2)cnc2cc(Cl)ccc12 (stereo not drawn) 76.4

Identify growth associated with the compound COc1ccc(C(=O)OC2C(OC3C(O)COC(O[C@H]4C[C@H]5[C@@H]6CC=C7C[C@@H](O)CC[C@]7(C)[C@H]6CC[C@]5(C)[C@H]4[C@H](C)C(=O)CCC(C)C)C3OC(=O)C(C)C)OCC(O)C2O)cc1 (stereo partly drawn) 0.329

State its growth: "Cc1ccc(NC(=O)c2sc3nc4c(cc3c2N)C(=O)CCC4)cc1Cl" 106

* * *

- System: NCI-H23 lung
- procedure_details: NCI-60 one-dose screen, 48 h (100 = growth as untreated, 0 = no growth, -100 = all killed)
- details: 10 µM unless noted
About 83,000 compounds went through this panel and 20% of them were active in at least one assay; those are over-represented in the sample as a whole.
recorded_metric: growth (%)
Give just the number in %; leave the unit off.

# count of solved cases: 8
Respond only with growth recorded for "COc1cc(OC)c2sc(-c3ccc(-n4cncc4-c4ccc(OC)c(N)c4)cc3)nc2c1" 87.4

Determine from records and report growth for C=CCOC(=O)C1=C(C)NC2=C(C(=O)CCC2)C1c1ccc(F)cc1 (stereo not given) 92.4

Tell me measured growth for "O=C(N/N=C\c1cc(Br)ccc1O)c1ccncc1" please. 43.5

Output growth of CCOC(=O)C(Cc1ccccc1)n1c(O)c(/C=N/c2ncc(Cc3ccc(Cl)cc3Cl)s2)sc1=S (stereo not given) 11

Quickly give me recorded growth for CNC1=C([N+](=O)[O-])C(c2ccccc2O)C(C#N)=C(c2cccs2)O1 (stereo not given) 99.1

# return recorded growth for entry O=C1OCC2=C1C(c1ccccc1)c1cc3c(cc1N2CCO)CCC3 (stereo not given) -0.519

Please indicate growth recorded for "O=C1/C=C/[C@@H](O)[C@@H]2C[C@@H](O)C[C@H]2/C=C/CCC[C@H]([C@@H](O)CO)O1" 93

Give a short answer stating reported growth for "CCc1onc(-c2ccc(OC)cc2)c1-c1ccccc1OCCN(CC)CC" . 85.4

Next:
Read the entry C=CCOC(=O)C1=C(C)NC2=C(C(=O)CC(C)(C)C2)C1c1ccc(OC)cc1 (stereo not given) and write its reported growth. 104

Provide growth value for the following molecule: "Cc1cccc(N=NC(=S)NNc2cccc(C)c2)c1" 102

* * *

- Tested on: A549/ATCC NSCLC
- procedure_details: NCI-60 one-dose screen, 48 h (100 = growth as untreated, 0 = no growth, -100 = all killed)
- details: 10 µM unless noted
The panel holds about 83,000 compounds, 20% with a hit somewhere; the sample as a whole holds those more often.
As shown below, each of these molecules has a reported growth value.
Dear colleague, please return just the value in %, with no unit written.

Let me know recorded growth for CCSCC1CC(O)(c2ccccc2)C(c2ccccc2)C(c2ccc(F)cc2)O1 (centres undefined) , thanks. 3.27

Return value of growth for input "C=C1C(=O)O[C@H]2[C@H]1CC/C(COC(=O)NCc1ccc(Cn3c(=O)sn(CCCl)c3=O)cc1)=C\CC[C@@]1(C)O[C@@H]21" , no commentary. 86

Please report growth for the following molecule: "O=C1C(Cl)=C(Nc2cccc3ccccc23)C(=O)c2ccccc21" 87.9

# return recorded growth for input "COc1ccc2[nH]cc(C3(c4c[nH]c5ccc(OC)cc45)C(=O)Nc4ccc(F)cc43)c2c1" 75.3

Give reported growth value for COC(=O)C(Br)(C(=O)OC)C(Br)C(Br)C(Br)c1ccccc1 (centres undefined) 97.9

***
Answer with the recorded growth for the molecule listed here: Oc1c(C(Nc2ccccc2Br)c2ccccc2)ccc2cccnc12 (centres undefined) 22.6

Name the recorded growth of the item "COc1ccccc1CNCCCN1C(=O)c2ccc3c4c(ccc(c24)C1=O)C(=O)N(CCCCNCCCN)C3=O" in your answer. 33

Fill in growth for record COc1ccc(C(=O)OC2C(OC3C(O)COC(O[C@H]4C[C@H]5[C@@H]6CC=C7C[C@@H](O)CC[C@]7(C)[C@H]6CC[C@]5(C)[C@H]4[C@H](C)C(=O)CCC(C)C)C3OC(N)=O)OCC(O)C2O)cc1 (some centres undefined) 11.3

Please list growth recorded for the molecule "CC(C)[C@@]12C[C@@H](OC(=O)[C@H]3CO3)[C@@](C)(O1)[C@@H]1CC[C@@H](C)[C@H]1[C@@H]2OC(=O)/C=C/c1ccccc1" 61.5

For "CS(=O)(=O)c1ccc(Cl)c([N+](=O)[O-])c1" , write its growth. 119

Tell us which growth value is on record for CC(C)(C)c1nn(-c2ccccc2)c2c1C(=O)CSC(c1ccccc1Cl)N2 (centres undefined) 39.8

Retrieve growth measured for "CCCCOc1nc2ccc(C)cc2cc1/C=C/C(=O)/C=C(O)/C=C/c1cc2cc(C)ccc2nc1OCCCC" and print it. 91.7
